Reported self-cleavage values follow for various variants
B1: CPEB3 Ribozyme (parent)
chain: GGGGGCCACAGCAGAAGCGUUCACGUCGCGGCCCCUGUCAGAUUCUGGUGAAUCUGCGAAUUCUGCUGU

variants of: B1; experiment: self-cleavage, relative activity (ratio to wild type); higher = more cleavage; co-transcriptional
Lab note: write the figure by itself, no unit.

Some entries whose results are on file:
sequence_code | self-cleavage
GGGGGCCACAGCAGAAGCGUUCACGUCGCGGCCCCUGUCAGAUUUUGGUGAAUCUGCGAAUUCUGCUGG [C45U U69G] | 1.05
UUGGGCCACAGCAGAAGCGUUCACGUCGCGGCCCCUGUCAGAUUCUGGUGAAUCUGCGAAUUCUGCUGU [G1U G2U] | 0.392
GGGGUCCACAGCAGAAGCGUUCACGUCGCGGCCCCUGUAAGAUUCUGGUGAAUCUGCGAAUUCUGCUGU [G5U C39A] | 0.0897
GGGGGCCACAGCAGAAGUGUUCACGUCGCGGCCCCUGUCGGAUUCUGGUGAAUCUGCGAAUUCUGCUGU [C18U A40G] | 0.742
GGGGGCCACAGCAGAAGCGUACACGUGGCGGCCCCUGUCAGAUUCUGGUGAAUCUGCGAAUUCUGCUGU [U21A C27G] | 0.222
GGGGGCCACAGCAGAAGCGUUCACGACGCGGCCCCUGUCAGAUUCUGGUGAAUCUGCGAAUUCUGCUGA [U26A U69A] | 0.938
GGGGGCCACAGCAGAAGCGUCCACGUCGCGGCCCCUGUCAGAUUCUGGUGAAUCUGCGAAUUCUGCUGA [U21C U69A] | 0.885
GGGGGCCACAGCAGAAGCGUUCACGUCGCGCCCCCUGUCAGAUUCUGGUAAAUCUGCGAAUUCUGCUGU [G31C G50A] | 0.214
GGGGGCCACAGCAGAAGCGUUCACGUCGCGGCCCCUGUCAGAUUCUGGUGAAUCUGCGAAUUCUGAUGC [C66A U69C] | 1.04
GGGGGCUACAGCAGAAGCGUCCACGUCGCGGCCCCUGUCAGAUUCUGGUGAAUCUGCGAAUUCUGCUGU [C7U U21C] | 0.688

Look up self-cleavage: GGGGGCCACAGCAGAAGCGUUCACGUCGCGGCCCCCGUCAGAUUCUGGUGAAUCUGCGAAUUCUGCAGU [U36C U67A]
0.926

Look up self-cleavage: GGGGGCCAUAGCAGAAGCGUUCACGUCGCGGCCCCUGUCAGAUUCUGCUGAAUCUGCGAAUUCUGCUGU [C9U G48C]
1.02

Look up self-cleavage: GGGGGCCAAAGCAGAAGCGUUCACGUCGCGGCCGCUGUCAGAUUCUGGUGAAUCUGCGAAUUCUGCUGU [C9A C34G]
0.995

Look up self-cleavage: GGGGGCCACAGCAGAAGCGUCCACGUCGCGGCCCCUGUCAGAUUGUGGUGAAUCUGCGAAUUCUGCUGU [U21C C45G]
0.864

Look up self-cleavage: GGGGGCCACAGCAGAAGCGUUUACGGCGCGGCCCCUGUCAGAUUCUGGUGAAUCUGCGAAUUCUGCUGU [C22U U26G]
0.207
